target: Gal(b1-4)GlcNAc(b1-2)Man(a1-3)[Gal(b1-4)GlcNAc(b1-2)Man(a1-6)]Man(b1-4)GlcNAc(b1-4)GlcNAc; experiment: glycan array binding signal (z-score within array); higher = stronger binding; details: glycan notation: IUPAC condensed, linker removed
Only a selection was taken, and the strongest signals are over-represented in it overall.
Assign class by glycan array binding signal (z-score): not lower than 1 means Fulfilled; lower than 1 means Not fulfilled.

These recorded examples may help you get a feel for the data.
BINDER: SSR1 (Sclerotium rolfsii), A0A0M3KL30 (protein) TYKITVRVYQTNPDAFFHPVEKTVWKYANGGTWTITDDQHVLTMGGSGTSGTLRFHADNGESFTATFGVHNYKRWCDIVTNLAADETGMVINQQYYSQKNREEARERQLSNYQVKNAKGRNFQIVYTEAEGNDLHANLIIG
ANSWER LABEL: Not fulfilled
//
BINDER: FliC (Clostridium difficile) (protein) MRVNTNVSALIANNQMGRNVNGQSKSMEKLSSGVRIKRAADDAAGLAISEKMRAQIKGLDQAGRNVQDGISVVQTAEGSLEETGNILQRMRTLSLQSANEINNTEEREKIADELTQLKDEIERISSSTEFNGKKLLDGTSSTIRLQVGASYGTNVSGTSNNNNEIKIQLVNTASIMASAGITTASIGSMKAGGTTGTDAAKTMVSSLDAALKSLNSSRAKLGAQQNRLESTQNNLNNTLENVTAAESRIRDTDVASEMVNLSKMNILVQASQSMLAQANQQPQGVLQLLG
ANSWER LABEL: Not fulfilled
//
BINDER: SRS6 (Toxoplasma gondii), Q9NH12 (protein) MARTGSMQQRRGGFQTTARMLMAVCVSGVLLLSSGPSSANKLTEGQQNQNSGPGAATQEGPTIEGAVAKCVLKTTAAENGSSRAKNTTGLTLSKENLVVSLQCSGEKNAIVPKDQKKVCSAAPNAKVADCKGADTDKQVTLKSLLGTSGDIQWEKTIVSTDNKGEVMTLKIKESELPLFDKAFFVGCEEDKAQTRTSQATECKVNVSVKARPSTVGENNVVTCAYGKDSNPRPLEVEMSADNDTLTIDCGTDGSLKPTKYTEEFCVTDNSQLESCTTKKFSEILPTFLPSWWVSDSQNGSAKLTIPESGFPEEQQQFRLGCVPKKTTQSPQANPSVKTEKEEGAQNTDASTSNCSVIVTVKASNFSSLASSIAPTAAVAGGAAALTGFLVGSF
ANSWER LABEL: Not fulfilled
//
BINDER: Epa1to9 (Candida glabrata) (protein) MGSSHHHHHHSSGLVPRGSHMTSSNDISLASKDPTTFPLGCSPDITTPKKGLSMELYSYDFRKKGSYPCWDAAYLDPNYPRTGYKSHRLLAKVDGVTGNINFYYHATKGCTPQLGHLPASYNYPKPLTMTNFTMLLYGYFRPKVTGFHTFTISADDLLFVNFGAGNAFDCCRRDSSADHFGNYQAYAIWGSKTAKDELTVHLDAGVYYPIRLFYNNRDYHGALSFTFKTESNENTVSDFSEYFFSLDDTEEGCPGLISYD
ANSWER LABEL: Fulfilled

We next turn to a different binder, shown below.
// inclusive: glycan array binding signal (z-score) at least 1? input: X56-1 (Clostridium perfringens), P26831 (protein) MGSSHHHHHHSSGLVPRGSHMASDPNRIIATYISNRQDAPTGNPDNIFDNNASTELVYKNPNRIDVGTYVGVKYSNPITLNNVEFLMGANSNPNDTMQKAKIQYTVDGREWIDLEEGVEYTMPGAIKVENLDLKVRGVRLIATEARENTWLGVRDINVNKKEDSNSGVEF Fulfilled
